Overview of reported MIC across a group of compounds:
Test system: Salmonella typhimurium
Experiment: Antibacterial activity against Salmonella enterica serovar Typhimurium R200 expressing stm3031 gene deletion mutant by CLSI M7-A7 agar dilution method
Format: functional, Salmonella enterica subsp. enterica serovar Typhimurium
Measured property: MIC (µg/mL)

INSERT INTO assay_data (compound, measured_property, unit_name, observed_result) VALUES
  ('CO/N=C(\C(=O)N[C@@H]1C(=O)N2C(C(=O)O)=C(CSc3nc(=O)c(O)nn3C)CS[C@H]12)c1csc(N)n1', 'MIC', 'µg/mL', 4),
  ('CN(C)[C@@H]1C(O)=C(C(N)=O)C(=O)[C@@]2(O)C(O)=C3C(=O)c4c(O)cccc4[C@@](C)(O)[C@H]3C[C@@H]12', 'MIC', 'µg/mL', 4),
  ('CCn1cc(C(=O)O)c(=O)c2ccc(C)nc21', 'MIC', 'µg/mL', 0.5),
  ('CO[C@H]1/C=C/O[C@@]2(C)Oc3c(C)c(O)c4c(O)c(c(/C=N/N5CCN(C)CC5)c(O)c4c3C2=O)NC(=O)/C(C)=C\C=C\[C@H](C)[C@H](O)[C@@H](C)[C@@H](O)[C@@H](C)[C@H](OC(C)=O)[C@@H]1C', 'MIC', 'µg/mL', 16),
  ('CO[C@@H]1[C@@H](OC(N)=O)[C@@H](O)[C@H](Oc2ccc3c(O)c(NC(=O)c4ccc(O)c(CC=C(C)C)c4)c(=O)oc3c2C)OC1(C)C', 'MIC', 'µg/mL', 128),
  ('CN[C@@H]1[C@H](O[C@H]2[C@H](O[C@H]3[C@H](O)[C@@H](O)[C@H](N=C(N)N)[C@@H](O)[C@@H]3N=C(N)N)O[C@@H](C)[C@]2(O)C=O)O[C@@H](CO)[C@H](O)[C@H]1O', 'MIC', 'µg/mL', 128),
  ('Cn1nnnc1SCC1=C(C(=O)O)N2C(=O)[C@@H](NC(=O)[C@H](O)c3ccccc3)[C@H]2SC1', 'MIC', 'µg/mL', 64),
  ('CC[C@H]1OC(=O)[C@H](C)[C@@H](O[C@H]2C[C@@](C)(OC)[C@@H](O)[C@H](C)O2)[C@H](C)[C@@H](O[C@@H]2O[C@H](C)C[C@H](N(C)C)[C@H]2O)[C@](C)(O)C[C@@H](C)C(=O)[C@H](C)[C@@H](O)[C@]1(C)O', 'MIC', 'µg/mL', 2),
  ('CC(=O)OCC1=C(C(=O)O)N2C(=O)[C@@H](NC(=O)Cc3cccs3)[C@H]2SC1', 'MIC', 'µg/mL', 128);
